Kindly supply the reported Kp values for the records listed here.
# EXPERIMENT_SUMMARY: PET imaging studies in rhesus monkeys
# CONDITION_DESCRIPTION: rhesus monkey, in vivo, Distribution volume (VT), Globus pallidus; 1T model
Write no unit; give the number alone.

Lookup: State its Kp for this compound: Cc1cnccc1CN1CC(c2cccc(F)c2)CC1=O (stereo not drawn) [^18F-11]
Found: 8.8

Lookup: Give the reported Kp for this compound. O=C1CC(c2cc(F)c(F)c(F)c2)CN1Cc1ccncc1F (stereo not drawn) [^18F-10]
Found: 11.5

Lookup: Supply reported Kp belonging to this compound: Cc1cnccc1CN1CC(c2cc(F)cc(F)c2)CC1=O (stereo not drawn) [^18F-5]
Found: 19.3

---

# EXPERIMENT_SUMMARY: PET imaging studies in rhesus monkeys
# CONDITION_DESCRIPTION: rhesus monkey, in vivo, Distribution volume (VT), Brainstem; 1T model
MEASURE: Kp
Hey, just send me the number, nothing else.

Lookup: Query Kp for O=C1CC(c2cc(F)c(F)c(F)c2)CN1Cc1ccncc1F (stereo not drawn) [^18F-10]
Found: 10.2

Lookup: For Cc1cnccc1CN1CC(c2cccc(F)c2)CC1=O (stereo not drawn) [^18F-11] , write its Kp.
Found: 6.6

Lookup: Entry Cc1cnccc1CN1CC(c2cc(F)cc(F)c2)CC1=O (stereo not drawn) [^18F-5] needs its Kp filled in; supply it.
Found: 15

---

# TARGET_UNDER_TEST: SV2A (Macaca mulatta)
# EXPERIMENT_SUMMARY: PET imaging studies in rhesus monkeys
# CONDITION_DESCRIPTION: Amygdala; from VT, centrum semiovale as reference region
Please assign Not met whenever Binding potential (BPND) is at or above 0.8, and Met whenever it is below.

Lookup: Problem: For the molecule Cc1cnccc1CN1CC(c2cc(F)c(F)c(F)c2)CC1=O (single isomer, unassigned) [^11C-3] , is Binding potential (BPND) under 0.8?
Found: Not met

Lookup: Record O=C1CC(c2cccc(F)c2)CN1Cc1ccncc1 (stereo not shown) [^18F-12] : is its Binding potential (BPND) strictly below 0.8?
Found: Met

Lookup: Dear reviewer, please state whether Cc1cnccc1CN1CC(c2cccc(F)c2)CC1=O (stereo not shown) [^18F-11] has Binding potential (BPND) strictly beneath 0.8.
Found: Not met

Lookup: Does the reported Binding potential (BPND) of the following molecule sit strictly below 0.8? O=C1CC(c2cc(F)c(F)c(F)c2)CN1Cc1ccncc1F (stereo not shown) [^18F-10]
Found: Met

Lookup: Here's an entry: Cc1cnccc1CN1CC(c2cc(F)cc(F)c2)CC1=O (stereo not shown) [^18F-5] . Is its Binding potential (BPND) below 0.8?
Found: Not met

Lookup: Hello, is Binding potential (BPND) of the following molecule strictly smaller than 0.8? Cc1cnccc1CN1CC(c2cc(F)c(F)c(F)c2)CC1=O (stereo not shown) [^18F-3]
Found: Not met

Lookup: I'd appreciate it if you could check whether Cc1cnccc1CN1CC(c2ccc(F)c(F)c2)CC1=O (stereo not shown) [^18F-4] has Binding potential (BPND) smaller than 0.8.
Found: Met

---

# TARGET_UNDER_TEST: SV2A (Macaca mulatta, UniProt H9EQH8)
# Sequence (H9EQH8 1-742): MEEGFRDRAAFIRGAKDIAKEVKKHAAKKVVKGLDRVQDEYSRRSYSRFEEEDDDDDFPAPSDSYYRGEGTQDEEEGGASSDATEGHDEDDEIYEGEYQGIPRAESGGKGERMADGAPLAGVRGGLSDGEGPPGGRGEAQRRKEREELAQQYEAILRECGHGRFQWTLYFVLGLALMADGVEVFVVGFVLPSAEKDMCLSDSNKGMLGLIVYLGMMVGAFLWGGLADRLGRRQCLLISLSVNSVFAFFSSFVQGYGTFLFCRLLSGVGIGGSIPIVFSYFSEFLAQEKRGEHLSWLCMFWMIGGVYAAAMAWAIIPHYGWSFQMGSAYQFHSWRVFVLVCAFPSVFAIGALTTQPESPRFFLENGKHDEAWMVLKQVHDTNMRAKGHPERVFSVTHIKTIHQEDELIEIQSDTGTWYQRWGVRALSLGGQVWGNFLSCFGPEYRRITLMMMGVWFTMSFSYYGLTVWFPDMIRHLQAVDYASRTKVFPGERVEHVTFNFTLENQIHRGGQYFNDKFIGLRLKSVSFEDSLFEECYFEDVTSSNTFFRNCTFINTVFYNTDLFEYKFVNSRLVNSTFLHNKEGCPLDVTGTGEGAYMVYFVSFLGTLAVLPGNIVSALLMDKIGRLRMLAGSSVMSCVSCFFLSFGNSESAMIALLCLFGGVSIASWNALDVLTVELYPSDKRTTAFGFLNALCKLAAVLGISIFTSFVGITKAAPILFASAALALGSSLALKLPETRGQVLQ
# EXPERIMENT_SUMMARY: PET imaging studies in rhesus monkeys
# CONDITION_DESCRIPTION: Insular cortex; from VT, centrum semiovale as reference region
MEASURE: Binding potential (BPND)
I'd appreciate a reply containing only the number, no unit.

Lookup: In one line, give reported Binding potential (BPND) of the entry Cc1cnccc1CN1CC(c2ccc(F)c(F)c2)CC1=O (stereo not shown) [^18F-4] .
Found: 2.41

Lookup: Dear colleague, please send me the reported Binding potential (BPND) for Cc1cnccc1CN1CC(c2cc(F)cc(F)c2)CC1=O (stereo not shown) [^18F-5] when you can.
Found: 4.16

Lookup: Indicate the recorded Binding potential (BPND) value for this compound: O=C1CC(c2cccc(F)c2)CN1Cc1ccncc1 (stereo not shown) [^18F-12]
Found: 1.09

Lookup: For O=C1CC(c2cc(F)c(F)c(F)c2)CN1Cc1ccncc1F (stereo not shown) [^18F-10] , write its Binding potential (BPND).
Found: 0.48

Lookup: Note Binding potential (BPND) for the compound shown: Cc1cnccc1CN1CC(c2cc(F)c(F)c(F)c2)CC1=O (single isomer, unassigned) [^11C-3]
Found: 3.12

Lookup: # return recorded Binding potential (BPND) for input Cc1cnccc1CN1CC(c2cccc(F)c2)CC1=O (stereo not shown) [^18F-11]
Found: 3.00

Lookup: Report Binding potential (BPND) for Cc1cnccc1CN1CC(c2cc(F)c(F)c(F)c2)CC1=O (stereo not shown) [^18F-3]
Found: 3.51
